The measured values listed here are drawn from patent US4945114A.

Target: UniProtKB P10608
Sequence (P10608 whole entry): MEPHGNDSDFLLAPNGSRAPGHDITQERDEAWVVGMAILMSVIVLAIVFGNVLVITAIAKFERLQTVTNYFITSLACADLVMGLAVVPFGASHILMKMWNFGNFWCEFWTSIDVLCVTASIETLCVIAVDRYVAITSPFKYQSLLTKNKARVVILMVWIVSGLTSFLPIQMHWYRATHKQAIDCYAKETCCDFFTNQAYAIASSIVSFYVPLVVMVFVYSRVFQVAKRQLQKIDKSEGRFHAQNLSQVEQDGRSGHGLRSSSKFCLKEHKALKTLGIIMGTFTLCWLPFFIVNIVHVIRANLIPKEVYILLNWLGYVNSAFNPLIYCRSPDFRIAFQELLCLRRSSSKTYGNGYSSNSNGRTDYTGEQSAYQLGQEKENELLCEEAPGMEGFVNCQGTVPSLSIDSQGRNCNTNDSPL
Structures can show the parent of a compound that is named as a salt.
Here, each record is paired with measured Ki data.
Form entry: value (nM) — number only.

Below are worked cases with known answers.
molecule="CCCNC[C@@H](O)COc1ccccc1C(=O)CCc1ccccc1 [(R)-propafenone, (R)-propafenone . HCl]" unit_descriptor=nM readout_value=257
molecule="CCCNCC(O)COc1ccccc1C(=O)CCc1ccccc1 (racemic) [(R,S)-propafenone, reference compound]" unit_descriptor=nM readout_value=32

From here, focus on the item given below.
In: Give the reported value of Ki for this record: CCCNC[C@H](O)COc1ccccc1C(=O)CCc1ccccc1 [(S)-propafenone, (S)-propafenone . HCl]
Out: 14
